Target: Bcl-xL, Q07817
Sequence (Q07817 1-209): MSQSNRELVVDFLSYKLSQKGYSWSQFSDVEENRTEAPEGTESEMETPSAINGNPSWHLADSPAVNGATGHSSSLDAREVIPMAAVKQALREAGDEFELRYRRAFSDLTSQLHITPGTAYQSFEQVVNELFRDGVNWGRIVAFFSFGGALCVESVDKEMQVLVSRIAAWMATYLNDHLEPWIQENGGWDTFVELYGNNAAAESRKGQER
Test Details: peptide SPOT array, c-Myc-tagged receptor at 1 uM or 100 nM, anti-c-Myc-Cy3
Everything with SPOT signal as a fraction of Bim BH3's signal on the same receptor and array lower than 0.03 is class 0; everything else, including exactly 0.03, is class 1.

Prompt: Textbook exercise: given the entry DNHKKKTVKMDEYLGKDVLHGVFNYL [CASP5] , state whether its SPOT signal as a fraction of Bim BH3's signal on the same receptor and array is greater than or equal to 0.03.
Response: class 1
